target: human serum albumin (HSA) (Homo sapiens, UniProt P02768); assay: Fluorescence emission spectrum (quenching) of HSA with carbamate pesticides; assay type: binding; settings: 303 K, pH 7.4
Sequence (P02768 25-609): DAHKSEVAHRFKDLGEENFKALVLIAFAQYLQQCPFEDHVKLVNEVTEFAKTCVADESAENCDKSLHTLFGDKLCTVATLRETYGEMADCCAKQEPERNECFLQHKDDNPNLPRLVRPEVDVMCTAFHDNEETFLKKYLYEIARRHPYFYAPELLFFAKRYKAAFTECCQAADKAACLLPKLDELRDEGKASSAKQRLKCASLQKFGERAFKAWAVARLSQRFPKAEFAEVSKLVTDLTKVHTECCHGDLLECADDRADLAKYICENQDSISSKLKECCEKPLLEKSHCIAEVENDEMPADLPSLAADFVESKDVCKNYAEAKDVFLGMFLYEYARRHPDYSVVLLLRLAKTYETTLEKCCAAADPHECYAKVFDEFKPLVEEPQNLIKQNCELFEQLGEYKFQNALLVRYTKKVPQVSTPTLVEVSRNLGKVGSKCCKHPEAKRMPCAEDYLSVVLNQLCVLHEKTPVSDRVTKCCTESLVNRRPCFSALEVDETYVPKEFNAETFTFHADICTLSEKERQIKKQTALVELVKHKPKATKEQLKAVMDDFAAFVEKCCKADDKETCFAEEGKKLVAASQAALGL
property: n (number of binding sites)

Task: Which n (number of binding sites) reading was recorded for the compound CNC(=O)ON=C(CSC)C(C)(C)C ?
Output: 0.725 ± 0.005

Task: Which n (number of binding sites) reading was recorded for the compound CNC(=O)Oc1cc(C)cc(C)c1 [XMC, 3,5-xylyl methylcarbamate] ?
Output: 0.779 ± 0.012

Task: Which n (number of binding sites) reading was recorded for the compound CNC(=O)O/N=C(\C)C(C)S(C)(=O)=O (centres unmarked) ?
Output: 0.679 ± 0.002

Task: Which n (number of binding sites) reading was recorded for the compound CNC(=O)Oc1cc(C)cc(C(C)C)c1 ?
Output: 0.704 ± 0.008

Task: Which n (number of binding sites) reading was recorded for the compound CNC(=O)Oc1cccc(C)c1 ?
Output: 0.587 ± 0.001

Task: Which n (number of binding sites) reading was recorded for the compound CNC(=O)Oc1ccccc1OC(C)C ?
Output: 0.729 ± 0.013

Task: Which n (number of binding sites) reading was recorded for the compound CNC(=O)ON=C(C)SC ?
Output: 0.727 ± 0.008

Task: Which n (number of binding sites) reading was recorded for the compound CCSCc1ccccc1OC(=O)NC ?
Output: 0.645 ± 0.009

Task: Which n (number of binding sites) reading was recorded for the compound CNC(=O)O/N=C(\C[S+](C)[O-])C(C)(C)C (centres unmarked) [Thiofanox-sulfoxide] ?
Output: 0.726 ± 0.005

Task: Which n (number of binding sites) reading was recorded for the compound CNC(=O)Oc1cccc2c1OC(C)(C)C2 ?
Output: 0.822 ± 0.002

Task: Which n (number of binding sites) reading was recorded for the compound CNC(=O)O/N=C(\CS(C)(=O)=O)C(C)(C)C ?
Output: 0.786 ± 0.008

Task: Which n (number of binding sites) reading was recorded for the compound CNC(=O)Oc1ccccc1C(C)C ?
Output: 0.689 ± 0.004

Task: Which n (number of binding sites) reading was recorded for the compound CNC(=O)Oc1ccc(N(C)C)c(C)c1 ?
Output: 0.669 ± 0.006

Task: Which n (number of binding sites) reading was recorded for the compound CNC(=O)O/N=C(\SC)C(=O)N(C)C ?
Output: 0.789 ± 0.004
